Values compiled from patent US10010077B2.

Kindly state Number of neonates feeding Control fruit for each of the entries shown.
# Tested on: codling moth neonates
# testDetails: apple plug choice feeding bioassay with codling moth neonates
# Assay type: in vivo, Cydia pomonella
# experimentalParameters: choice test versus fruit treated at 10 mg/ml
Answer with a number only.

Recall the recorded Number of neonates feeding Control fruit for O=c1c(O)c(-c2ccc(O)cc2)oc2cc(O)cc(O)c12 with codling moth neonates and state it.
10

Recall the recorded Number of neonates feeding Control fruit for CC1C(=O)OC2C(O)C34C5CC(C(C)(C)C)C36C(OC(=O)C6O)OC4(C(=O)O5)C12O (centres unmarked) [Ginkgolide B] with codling moth neonates and state it.
25

Recall the recorded Number of neonates feeding Control fruit for CCCCCCCCCCCCCc1cccc(O)c1C(=O)O with codling moth neonates and state it.
19

Recall the recorded Number of neonates feeding Control fruit for CC(C)(C)[C@]1(O)CC2OC(=O)CC23C(=O)OC2OC(=O)[C@H](O)C231 (some centres unmarked) [Bilobalide] with codling moth neonates and state it.
32

Recall the recorded Number of neonates feeding Control fruit for CCCCCC/C=C\CCCCCCCc1cccc(O)c1C(=O)O with codling moth neonates and state it.
19

Recall the recorded Number of neonates feeding Control fruit for C[C@@H]1C(=O)O[C@H]2C[C@@]34[C@H]5C[C@@H](C(C)(C)C)[C@]36[C@@H](OC(=O)[C@@H]6O)O[C@@]4(C(=O)O5)[C@]21O [Ginkgolide A] with codling moth neonates and state it.
26

Recall the recorded Number of neonates feeding Control fruit for CCCCCC/C=C\CCCCCCCCCc1cccc(O)c1C(=O)O with codling moth neonates and state it.
20

Recall the recorded Number of neonates feeding Control fruit for O=c1c(O)c(-c2ccc(O)c(O)c2)oc2cc(O)cc(O)c12 with codling moth neonates and state it.
16
